- experimental target: T2R08 (TAS2R08) (Homo sapiens)
- Construct: expressed in transfected cells; host or cells: cells expressing a promiscuous G protein (e.g., G16g44)
- Sequence (Q9NYW2 whole entry): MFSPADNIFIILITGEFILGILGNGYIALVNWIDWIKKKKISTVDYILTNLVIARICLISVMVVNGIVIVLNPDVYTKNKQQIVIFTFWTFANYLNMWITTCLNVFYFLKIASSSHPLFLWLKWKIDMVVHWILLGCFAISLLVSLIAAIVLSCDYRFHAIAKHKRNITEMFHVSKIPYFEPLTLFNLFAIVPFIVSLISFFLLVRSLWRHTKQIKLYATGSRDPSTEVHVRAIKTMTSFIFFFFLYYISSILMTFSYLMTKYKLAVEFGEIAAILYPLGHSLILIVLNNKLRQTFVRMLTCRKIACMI
- assay explanation: FLIPR calcium assay, block of bitter agonist response in cells transfected with T2R08
- Assay type: cell-based
- measurement parameters: saturated fatty acid concentration of 200 μM, read-out: percentage block of cellular response over baseline, 08
measured metric: inhibition at 200 µM (%)

compound	value relation sign	reported value
CCCCC(CC)CCC(=O)O (centres unmarked)	>	25
CCCCCC(C)C(=O)O (centres unmarked)	=	30
CCCCCCCCC(=O)O	>	50
CCCCCCCCCCCC(=O)O	=	40
CCCCCCC(=O)O [Compound 101, Heptanoic acid (Enanthic acid)]	=	25

---

- experimental target: T2R01 (TAS2R01) (Homo sapiens, UniProt Q9NYW7)
- Construct: expressed in transfected cells; host or cells: cells expressing a promiscuous G protein (e.g., G16g44)
- Sequence (Q9NYW7 1-299): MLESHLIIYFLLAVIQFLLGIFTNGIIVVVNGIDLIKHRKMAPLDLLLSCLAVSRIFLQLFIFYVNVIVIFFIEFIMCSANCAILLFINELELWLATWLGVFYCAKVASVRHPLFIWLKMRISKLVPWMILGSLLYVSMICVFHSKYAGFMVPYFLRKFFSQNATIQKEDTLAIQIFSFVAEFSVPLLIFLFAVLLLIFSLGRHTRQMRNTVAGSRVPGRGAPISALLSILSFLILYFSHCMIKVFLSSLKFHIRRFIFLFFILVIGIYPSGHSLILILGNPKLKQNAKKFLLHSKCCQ
- assay explanation: FLIPR calcium assay, block of bitter agonist response in cells transfected with T2R01
- Type: cell-based
- measurement parameters: saturated fatty acid concentration of 200 μM, read-out: percentage block of cellular response over baseline, 01
- Experimental: Cells expressing a promiscuous […] (e.g., G16g44) were transfected with vectors encoding 5 functional bitter receptor cDNAs, with one receptor per transfection. The cells were transfected directly in 384-well format high-density plates and incubated for 28 hours. […] After an incubation of 60 minutes, excess dye is washed off, and cells are stimulated with various saturated fatty acids while simultaneously recording changes in intracellular fluorescence using a FLIPR instrument. […]

compound	inhibition at 200 µM
CCCCCCCCCC(=O)O	> 75%
CCCCCCCCC(=O)O	> 50%
CCCCCCCCCCC(=O)O	> 75%
CCCCC(CC)CCC(=O)O (centres unmarked)	> 30%
CCCCCCCC(=O)O	> 30%
CCCCCC(C)CCC(=O)O (centres unmarked)	> 50%
CCCCCCCCCCCC(=O)O	> 35%
CCCCC(C)CCC(=O)O (centres unmarked)	40%

---

- experimental target: T2R10 (TAS2R10) (Homo sapiens)
- Construct: expressed in transfected cells; host or cells: cells expressing a promiscuous G protein (e.g., G16g44)
- Sequence (Q9NYW0 whole entry): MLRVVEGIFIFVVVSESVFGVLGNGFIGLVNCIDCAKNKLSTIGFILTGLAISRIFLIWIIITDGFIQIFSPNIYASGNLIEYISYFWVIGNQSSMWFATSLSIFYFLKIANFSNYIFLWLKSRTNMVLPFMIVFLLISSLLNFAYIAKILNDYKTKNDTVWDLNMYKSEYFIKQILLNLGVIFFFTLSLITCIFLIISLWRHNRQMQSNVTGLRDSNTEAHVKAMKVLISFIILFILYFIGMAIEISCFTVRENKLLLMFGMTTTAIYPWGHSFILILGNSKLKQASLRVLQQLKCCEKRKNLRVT
- assay explanation: FLIPR calcium assay, block of bitter agonist response in cells transfected with T2R10
- Format: cell-based
- measurement parameters: saturated fatty acid concentration of 200 μM, read-out: percentage block of cellular response over baseline, 10
measured metric: inhibition at 200 µM

compound	experimental target	reported value
CCCCCCCCCC(=O)O	T2R10 (TAS2R10) (Homo sapiens)	> 95%
CCCCCC(C)CCC(=O)O (stereo not drawn)	T2R10 (TAS2R10) (Homo sapiens)	> 85%
CCCCC(CC)CCC(=O)O (stereo not drawn)	T2R10 (TAS2R10) (Homo sapiens)	> 50%
CCCCCCCC(=O)O	T2R10 (TAS2R10) (Homo sapiens)	40%
CCCCCCCCCCCC(=O)O	T2R10 (TAS2R10) (Homo sapiens)	> 85%
CCCCC(C)CCC(=O)O (stereo not drawn)	T2R10 (TAS2R10) (Homo sapiens)	> 60%
CCCCCCCCCCC(=O)O	T2R10 (TAS2R10) (Homo sapiens)	> 95%
CCCCCCCCC(=O)O	T2R10 (TAS2R10) (Homo sapiens)	> 70%
CCCCCC(C)C(=O)O (stereo not drawn)	T2R10 (TAS2R10) (Homo sapiens)	30%

Hey, just so you know, these numbers are from patent US20250275559A1.
